Target: Prostaglandin G/H synthase 2 (Homo sapiens)
Sequence (P35354 whole entry): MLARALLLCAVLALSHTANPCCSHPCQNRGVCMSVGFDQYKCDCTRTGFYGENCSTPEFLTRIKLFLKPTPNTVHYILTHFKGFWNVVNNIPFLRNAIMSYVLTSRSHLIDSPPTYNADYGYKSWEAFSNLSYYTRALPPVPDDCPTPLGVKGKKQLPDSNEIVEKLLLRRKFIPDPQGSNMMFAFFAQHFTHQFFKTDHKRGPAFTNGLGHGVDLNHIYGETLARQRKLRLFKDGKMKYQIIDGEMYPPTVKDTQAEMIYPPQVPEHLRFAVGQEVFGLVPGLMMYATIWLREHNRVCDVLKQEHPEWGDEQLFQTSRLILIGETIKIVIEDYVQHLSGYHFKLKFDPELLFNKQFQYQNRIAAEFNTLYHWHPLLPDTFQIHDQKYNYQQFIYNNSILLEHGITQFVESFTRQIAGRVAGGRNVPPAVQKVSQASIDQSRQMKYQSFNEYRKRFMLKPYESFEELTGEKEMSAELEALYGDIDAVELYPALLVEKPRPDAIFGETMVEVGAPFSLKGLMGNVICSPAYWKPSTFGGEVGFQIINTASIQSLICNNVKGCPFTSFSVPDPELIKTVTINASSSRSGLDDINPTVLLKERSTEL
Reported Endpoint: IC50 (µM)

O=C1NC(=O)C(c2ccc(O)c(O)c2)=C1c1ccccc1 = 16
O=C1NC(=O)C(c2cc(O)c(O)c(O)c2)=C1c1ccccc1 = 17.5
CSc1ccc(C2=C(c3ccccc3)C(=O)NC2=O)cc1 = 16.3
CSc1ccc(C2=C(c3ccccc3)C(=O)OC2=O)cc1 = 18.5

----------
System: RAW264.7
Assay: Antiinflammatory activity in mouse RAW264.7 cells assessed as inhibition of LPS-induced PGE2 production by EIA
Format: functional, cell-based
Details: Mus musculus, RAW264.7; read-out: IC50
pIC50: −log10 of the molar value.
Reported Endpoint: pIC50

CC(=O)Oc1ccc(C2=C(c3ccc(S(C)(=O)=O)cc3)C(=O)OC2=O)cc1 = 5.36
CSc1ccc(C2=C(c3ccccc3)C(=O)NC2=O)cc1 = 5.33
CSc1ccc(C2=C(c3ccc(OC(C)=O)cc3)C(=O)OC2=O)cc1 = 4.52
COc1cccc(C2=C(c3ccccc3)C(=O)NC2=O)c1 = 5.00
COc1ccc(C2=C(c3ccc([S+](C)[O-])cc3)C(=O)OC2=O)cc1 (stereo not drawn) = 4.62
O=C1NC(=O)C(c2cc(O)c(O)c(O)c2)=C1c1ccccc1 = 5.09

(1) CSc1ccc(C2=C(c3ccc(O)cc3)C(=O)NC2=O)cc1
(2) O=C1OC(=O)C(c2ccc3c(c2)OCO3)=C1c1ccccc1
(3) C[S+]([O-])c1ccc(C2=C(c3ccc(O)cc3)C(=O)NC2=O)cc1 (stereo not drawn)
Q) Hey, quick one: sort these by pIC50, low to high? State the ranking by listing the labels in the requested order.
A) 3, 2, 1

(1) CSc1ccc(C2=C(c3ccccc3)C(=O)OC2=O)cc1
(2) COc1ccc(C2=C(c3ccccc3)C(=O)NC2=O)cc1OC
(3) CSc1ccc(C2=C(c3ccc(N(C(C)=O)C(C)=O)cc3)C(=O)OC2=O)cc1
Q) Arrange these 3 compounds in increasing order of pIC50. Please, when replying, give the labels in the order that was requested.
A) 2, 3, 1

(a) O=C1NC(=O)C(c2ccc(O)c(O)c2)=C1c1ccccc1
(b) CS(=O)(=O)c1ccc(C2=C(c3ccc(F)cc3)C(=O)NC2=O)cc1
Q) Higher pIC50 between a and b ? Field: selected label. Fill in the label of the entry you choose.
A) a

(I) COc1ccc(C2=C(c3ccccc3)C(=O)OC2=O)cc1OC
(II) O=C1NC(=O)C(c2ccccc2)=C1c1ccccc1
(III) CS(=O)(=O)Nc1ccc([N+](=O)[O-])cc1OC1CCCCC1
Q) // smallest pIC50 at index 0, largest at the end Labels, requested order.
A) I, II, III

----------
Tested on: RAW264.7
Assay: Antiinflammatory activity in mouse RAW264.7 cells assessed as inhibition of LPS-induced PGE2 production by EIA
Format: functional, cell-based
Conditions: Mus musculus, RAW264.7; read-out: IC50
Reported Endpoint: IC50 (µM)

O=C1NC(=O)C(c2cccc(O)c2)=C1c1ccccc1 = 13.8
COc1ccc(C2=C(c3ccc(SC)cc3)C(=O)OC2=O)cc1 = 12.6
CS(=O)(=O)c1ccc(C2=C(c3ccccc3)C(=O)NC2=O)cc1 = 2.71
COc1cc(C2=C(c3ccccc3)C(=O)NC2=O)cc(OC)c1OC = 25.1

(A) CSc1ccc(C2=C(c3ccc(F)cc3)C(=O)NC2=O)cc1
(B) CS(=O)(=O)c1ccc(C2=C(c3ccccc3)C(=O)OC2=O)cc1
Q) // select label with min value of measured IC50 from [ A , B ] Select an item and report its label.
A) B
(B: 15.4 µM, A: 25.5 µM)
